Hey, just so you know, these numbers are from patent US4600689A.

Give measured inhibition at 1000 µM for each item. Keep answers brief.
Target Or System: novel bilirubin oxidase M-1 of Trachyderma tsunodae K-2593 (Trachydermella tsunodae, UniProt O61263)
Sequence (O61263 22-521): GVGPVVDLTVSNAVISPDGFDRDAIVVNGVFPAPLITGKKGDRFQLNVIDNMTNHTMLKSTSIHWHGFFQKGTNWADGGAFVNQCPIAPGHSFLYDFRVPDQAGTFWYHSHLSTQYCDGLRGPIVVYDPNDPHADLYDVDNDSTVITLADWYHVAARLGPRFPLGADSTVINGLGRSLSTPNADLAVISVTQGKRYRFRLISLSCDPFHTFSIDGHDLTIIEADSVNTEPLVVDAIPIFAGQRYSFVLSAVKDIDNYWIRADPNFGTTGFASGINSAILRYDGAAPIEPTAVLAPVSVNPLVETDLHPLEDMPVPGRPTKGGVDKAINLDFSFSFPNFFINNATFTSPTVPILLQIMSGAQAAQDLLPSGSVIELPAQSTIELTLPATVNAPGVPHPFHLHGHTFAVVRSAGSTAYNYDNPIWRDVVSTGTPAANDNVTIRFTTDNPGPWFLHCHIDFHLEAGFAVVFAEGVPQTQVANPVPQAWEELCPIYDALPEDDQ
Procedure Text: Effect of interfering agents on bilirubin oxidase activity (decrease in absorption at 460 nm of bilirubin)
Type: biochemical
Study Conditions: 10 min, pH 7; additive 1 mM; read-out: Percent interference (%)
Field format: number, assumed %, no unit text.

Value lookup for inhibition at 1000 µM; key = N[C@@H](CS)C(=O)O
74

Value lookup for inhibition at 1000 µM; key = O=C1O[C@H]([C@@H](O)CO)C(O)=C1O
100

Value lookup for inhibition at 1000 µM; key = c1cnc2c(c1)ccc1cccnc12
34

Value lookup for inhibition at 1000 µM; key = OCCS
31

Value lookup for inhibition at 1000 µM; key = O[C@H](CS)[C@H](O)CS (racemic)
86
